Consider the following sequences and their measured self-splicing fitness (ln) readings.
- Assay Comment: self-splicing fitness, log relative to wild type (ln ratio); higher = more splicing; Tetrahymena group I intron in knt gene, E. coli kanamycin selection, DiMSum; sequences stand for … in CUCUCU…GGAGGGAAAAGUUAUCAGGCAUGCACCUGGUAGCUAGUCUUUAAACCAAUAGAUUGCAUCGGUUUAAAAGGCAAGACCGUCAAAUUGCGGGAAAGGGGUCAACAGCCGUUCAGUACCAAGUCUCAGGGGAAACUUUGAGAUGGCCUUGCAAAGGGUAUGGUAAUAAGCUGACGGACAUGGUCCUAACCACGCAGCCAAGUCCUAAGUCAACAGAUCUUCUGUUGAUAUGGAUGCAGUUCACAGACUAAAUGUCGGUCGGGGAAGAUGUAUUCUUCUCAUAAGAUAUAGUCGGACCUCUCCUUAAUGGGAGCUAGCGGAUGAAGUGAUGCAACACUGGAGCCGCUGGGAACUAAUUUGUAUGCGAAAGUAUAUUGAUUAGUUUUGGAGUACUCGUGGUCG;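 note: selection with 25 µg/mL kanamycin versus none on LB agar overnight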
- Conditions Used: 30 °C
Note: the reply should be a number with no unit written.

Answered cases to consult:
self-splicing fitness (ln) reading for "GCGUAGCAAUAUUACGCCUU" : -3.7

Measured self-splicing fitness (ln), "AGUCAGCAAUAUUACGCCAA" : -2.75

Now for the sequence whose self-splicing fitness (ln) we want.
"GGUGAGCAAUAUUACGUGAG" yielded self-splicing fitness (ln) of -2.73

---

- Assay Comment: self-splicing fitness, log relative to wild type (ln ratio); higher = more splicing; Tetrahymena group I intron in knt gene, E. coli kanamycin selection, DiMSum; sequences stand for … in CUCUCU…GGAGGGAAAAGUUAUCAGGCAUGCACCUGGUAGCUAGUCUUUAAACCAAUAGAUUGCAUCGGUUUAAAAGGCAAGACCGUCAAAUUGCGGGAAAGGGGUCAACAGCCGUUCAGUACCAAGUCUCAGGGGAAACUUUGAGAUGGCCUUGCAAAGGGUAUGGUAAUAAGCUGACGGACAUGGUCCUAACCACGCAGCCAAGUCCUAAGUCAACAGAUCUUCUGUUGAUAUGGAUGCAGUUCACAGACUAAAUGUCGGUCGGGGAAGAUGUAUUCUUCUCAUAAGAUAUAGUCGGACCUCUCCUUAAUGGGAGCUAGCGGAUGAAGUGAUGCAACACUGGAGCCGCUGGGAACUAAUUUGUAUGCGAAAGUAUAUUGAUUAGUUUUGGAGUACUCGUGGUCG
- Conditions Used: 37 °C
Reported Property: self-splicing fitness (ln)

The sequence listed as "UAUGAGCAAUAUUACGGAUC" has a reported self-splicing fitness (ln) of -2.19

---
Data point: "UUGCAGCAAUAUUACGUAAA" ; self-splicing fitness (ln) = -0.427

response.value for "CACCAGCAAUAUUACGAGUU" (field: self-splicing fitness (ln)) = -1.65

According to the records, this sequence "GAUUAGCAAUAUUACGGUGG" displays self-splicing fitness (ln) of -2.88

---

- Assay Comment: self-splicing fitness, log relative to wild type (ln ratio); higher = more splicing; Tetrahymena group I intron in knt gene, E. coli kanamycin selection, DiMSum; sequences stand for … in CUCUCU…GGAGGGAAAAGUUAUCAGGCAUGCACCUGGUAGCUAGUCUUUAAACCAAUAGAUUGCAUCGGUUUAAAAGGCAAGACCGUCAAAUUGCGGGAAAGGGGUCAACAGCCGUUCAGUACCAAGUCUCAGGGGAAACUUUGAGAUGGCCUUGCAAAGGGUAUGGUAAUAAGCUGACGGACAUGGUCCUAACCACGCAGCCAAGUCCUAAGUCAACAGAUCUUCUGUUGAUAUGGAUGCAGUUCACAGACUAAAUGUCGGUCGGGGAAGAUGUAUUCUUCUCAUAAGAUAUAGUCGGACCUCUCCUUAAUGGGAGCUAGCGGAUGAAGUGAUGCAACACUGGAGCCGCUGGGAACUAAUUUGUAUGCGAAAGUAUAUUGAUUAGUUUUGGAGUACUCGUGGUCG
- Conditions Used: 37 °C
Reported Property: self-splicing fitness (ln)
Reply with just the number.

Looking up "GAAGAGCAAUAUUACGGGAC" , I see its self-splicing fitness (ln) listed as -2.3

So, "AUUGAGCAAUAUUACGGCAA" ? Its self-splicing fitness (ln) was -0.831

get_value(item= "CGCAAGCAAUAUUACGUAUC" , readout=self-splicing fitness (ln)) returns -2.33

Could you now look at the following sequence, please?
Looking up "UUUGAGCAAUAUUACGCUCA" , I see its self-splicing fitness (ln) listed as -1.6
